Data credit: PubChem BioAssay (NCI)

- Tested on: RPMI-8226 leukemia
- experiment summary: NCI-60 one-dose screen, 48 h
- applied conditions: 10 µM unless noted
Compounds without any hit were thinned out: in the full panel of roughly 83,000, 20% have a hit. Calls of active or inactive are those of the source. Rule for the calls: active = growth percent below 10; inactive = the rest.
Choose the fitting class; nothing outside True (active), False (inactive) is accepted.

Prompt: Short answer needed: outcome of this test for COC(=O)[C@@]12OC[C@]34[C@H]([C@@H](O)[C@@H]1O)[C@@]1(C)[C@H](O)C(=O)C=C(C)[C@@H]1C[C@H]3OC(=O)C(OC(C)=O)[C@@H]24 (stereo partly specified) ?
Response: True

Prompt: How about this compound: O=C(O)c1ccc2c3c(ncnc13)-c1ccccc1C2=O
Response: False
